target: DNA gyrase subunit A (Staphylococcus aureus); test: Inhibition of Staphylococcus aureus DNA gyrase subunit A supercoiling activity using relaxed pBR322 DNA as substrate after 60 mins by agarose gel electrophoresis
Sequence (P20831 whole entry): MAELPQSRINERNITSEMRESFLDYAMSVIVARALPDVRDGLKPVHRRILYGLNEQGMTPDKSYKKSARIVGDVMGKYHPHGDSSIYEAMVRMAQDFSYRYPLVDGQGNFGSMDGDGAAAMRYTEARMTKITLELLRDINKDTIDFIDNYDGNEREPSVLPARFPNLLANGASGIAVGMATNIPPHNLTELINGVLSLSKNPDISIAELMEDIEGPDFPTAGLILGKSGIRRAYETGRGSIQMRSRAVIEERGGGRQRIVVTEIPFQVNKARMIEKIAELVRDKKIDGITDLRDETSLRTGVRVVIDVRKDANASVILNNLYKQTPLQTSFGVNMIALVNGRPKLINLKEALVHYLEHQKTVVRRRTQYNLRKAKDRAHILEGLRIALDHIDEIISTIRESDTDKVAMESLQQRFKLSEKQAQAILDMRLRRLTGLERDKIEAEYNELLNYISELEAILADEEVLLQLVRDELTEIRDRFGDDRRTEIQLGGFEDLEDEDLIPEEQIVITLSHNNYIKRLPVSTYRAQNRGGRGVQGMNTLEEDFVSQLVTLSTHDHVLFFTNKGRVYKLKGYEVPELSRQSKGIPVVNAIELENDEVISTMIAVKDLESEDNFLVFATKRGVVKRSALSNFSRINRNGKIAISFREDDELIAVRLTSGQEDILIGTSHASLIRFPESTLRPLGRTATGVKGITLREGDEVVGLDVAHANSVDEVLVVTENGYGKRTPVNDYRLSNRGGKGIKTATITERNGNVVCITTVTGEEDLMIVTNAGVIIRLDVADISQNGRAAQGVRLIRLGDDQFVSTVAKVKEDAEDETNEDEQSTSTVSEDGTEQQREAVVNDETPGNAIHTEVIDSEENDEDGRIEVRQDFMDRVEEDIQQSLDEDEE
pIC50: −log10 of the molar value.
# pIC50 annotations
assay.endpoint: pIC50

smiles.structure	study.system	number
CSc1[nH]c2c(Cl)cc([N+](=O)[O-])cc2c(=O)c1C(C)=O	DNA gyrase subunit A (Staphylococcus aureus)	4.10
CCSc1[nH]c2ccc(C(F)(F)F)cc2c(=O)c1C(C)=O	DNA gyrase subunit A (Staphylococcus aureus)	4.79
CSc1[nH]c2c(C(F)(F)F)ccc(C(F)(F)F)c2c(=O)c1C(C)=O	DNA gyrase subunit A (Staphylococcus aureus)	5.72
CSc1[nH]c2c(F)ccc(C(F)(F)F)c2c(=O)c1C(C)=O	DNA gyrase subunit A (Staphylococcus aureus)	5.61
CSc1[nH]c2c(Cl)cc(C(F)(F)F)cc2c(=O)c1C(C)=O	DNA gyrase subunit A (Staphylococcus aureus)	5.10
CSc1[nH]c2cc(C(F)(F)F)c(C#N)cc2c(=O)c1C(C)=O	DNA gyrase subunit A (Staphylococcus aureus)	5.19

* * *

system: Bacillus cereus; test: Antimicrobial activity against Bacillus cereus after 18 to 20 hrs by micro broth dilution method; format: functional
# MIC annotations
assay.endpoint: MIC (µM)

molecule	units.symbol	value.comparator	number
CC1COc2c(N3CCN(C)CC3)c(F)cc3c(=O)c(C(=O)O)cn1c23 (centres undefined)	µM	=	0.8
CSc1[nH]c2ccc(C(F)(F)F)cc2c(=O)c1C(C)=O	µM	=	50
CSc1[nH]c2c(C(F)(F)F)ccc(C(F)(F)F)c2c(=O)c1C(C)=O	µM	=	1.6
CC(=O)c1c(O)[nH]c2ccc(C(F)(F)F)cc2c1=O	µM	>	200
CSc1[nH]c2ccc(C)cc2c(=O)c1C(C)=O	µM	>	200
CSc1[nH]c2ccc(OC(F)(F)F)cc2c(=O)c1C(C)=O	µM	=	12.5
CSc1[nH]c2c(Cl)ccc(C(F)(F)F)c2c(=O)c1C(C)=O	µM	=	1.6
CSc1[nH]c2c(Cl)cc([N+](=O)[O-])cc2c(=O)c1C(C)=O	µM	=	6.25
CSc1[nH]c2c(Cl)cc(C(F)(F)F)cc2c(=O)c1C(C)=O	µM	=	1.6
CSc1[nH]c2c(C)cccc2c(=O)c1C(C)=O	µM	>	200
CCSc1[nH]c2ccc(C(F)(F)F)cc2c(=O)c1C(C)=O	µM	=	25
CN(C)[C@@H]1C(O)=C(C(N)=O)C(=O)[C@@]2(O)C(O)=C3C(=O)c4c(O)cccc4[C@@](C)(O)[C@H]3C[C@@H]12	µM	=	1.6
CSc1[nH]c2c(F)ccc(C(F)(F)F)c2c(=O)c1C(C)=O	µM	=	3.12
CSc1[nH]c2c(Cl)cccc2c(=O)c1C(C)=O	µM	>	200
CSc1[nH]c2ccccc2c(=O)c1C(C)=O	µM	>	200
CSc1[nH]c2cc(Br)ccc2c(=O)c1C(C)=O	µM	=	200
CSc1[nH]c2cc(C(F)(F)F)ccc2c(=O)c1C(C)=O	µM	=	50
COc1cccc2c(=O)c(C(C)=O)c(SC)[nH]c12	µM	>	200
CSc1[nH]c2ccc(Br)cc2c(=O)c1C(C)=O	µM	=	200
COc1ccc(C(F)(F)F)c2c(=O)c(C(C)=O)c(SC)[nH]c12	µM	>	200
CSc1[nH]c2cc(C(F)(F)F)c(C#N)cc2c(=O)c1C(C)=O	µM	=	1.6
CSc1[nH]c2c(Br)cccc2c(=O)c1C(C)=O	µM	>	200
COc1ccc2[nH]c(SC)c(C(C)=O)c(=O)c2c1	µM	>	200
CC(=O)c1c([S+](C)[O-])[nH]c2ccc(C(F)(F)F)cc2c1=O (centres undefined)	µM	=	3.12

// provenance: ChEMBL document CHEMBL4152270
